// values below are reported melting point

Please review the entries below; each comes with its answer.
| compound | melting point |
| --- | --- |
| CC(C)(C)NCC(O)COc1ccccc1-c1ccc(Cl)nn1 (stereo unspecified) | 93 to 94 °C |
| CCNc1ccc(NC(C)=O)c(C)c1 | 102 to 103 °C |
| CCC(Oc1ccccc1Br)C(=O)O (stereo unspecified) | 102 °C |

Input line: Looking for the measured melting point of "CNc1cc(Oc2ccc3c(C(=O)O)cccc3c2)ncn1" , can you help?
Output line: 267 to 268 °C

Input line: Try the compound "CCCOc1ccccc1-c1nc(NCCO)cc(=O)[nH]1"
Output line: 164 to 166 °C

Input line: Try the compound "O=c1oc(Nc2ccc(Oc3ccccc3)cc2)nc2sccc12"
Output line: 206 to 210 °C

Input line: Try the compound "COC(CCCNC(=O)CCCCCCCCC(=O)NCCCC(OC)OC)OC"
Output line: 83.5 to 85.5 °C

Input line: Try the compound "COC(=O)c1scc(-c2ccccc2)c1-c1ccc(S(=O)O)c(F)c1"
Output line: 133 °C

Input line: Try the compound "CCOC(=O)c1c(N2CCN(C)CC2)c2cc(F)ccc2n(Cc2ccccc2)c1=O"
Output line: 156 °C

Input line: Try the compound NC(=O)C1CCc2[nH]c3ccc(Cl)c(Cl)c3c2C1 (stereo unspecified)
Output line: 246 to 247 °C

Input line: Try the compound Cc1c(NC(=O)C(CSC(=O)OCC(C)C)Cc2ccccc2)cccc1C(=O)O (stereo unspecified)
Output line: 165 to 167 °C

Input line: Try the compound "COc1ccc(S(=O)(=O)C2(C(=O)O)CCN(C(C)C)CC2)cc1"
Output line: 204 °C

Input line: Try the compound CC(C)(C)C(O)C(CCCCOc1ccccc1)n1cncn1 (stereo unspecified)
Output line: 79 to 81 °C

---

// values below are reported melting point

Please review the entries below; each comes with its answer.
| compound | quantity-kind | test-value |
| --- | --- | --- |
| COC(=O)C(Oc1ccc(C(C)(C)C)cc1)c1ccc(Oc2ccc(Cl)cc2)cc1 (stereo not given) | melting point | 118 to 120 °C |
| COc1ccc(CC#N)c2c1OCCO2 | melting point | 121 to 125 °C |
| CSc1ncc(Cc2cnc3ccccc3c2)c(=O)[nH]1 | melting point | 220 to 221 °C |
| Clc1ccc(NN=Cc2ccc(Oc3nn(Cc4ccccc4)c4ccccc34)o2)nn1 | melting point | 200 to 202 °C |

Shifting focus to the compound that follows.
Input line: Looking for the measured melting point of O=C(Nc1cn(C2CCCCO2)nc1C(=O)NCCO)c1ccccn1 (stereo not given) , can you help?
Output line: 214 to 215 °C

---

// values below are reported melting point

| molecule | melting point |
| --- | --- |
| CCOC(=O)C(=CNc1ccnn1CC)C(=O)OCC | 50 to 53 °C |
| CCS(=O)(=O)Nc1cc(-c2ncnc(Cl)c2Cl)c(F)cc1C#N | 149 to 150 °C |
| CCCOc1c(-c2cc(C=CC(=O)O)ccc2O)cc(C(C)(C)C)cc1C(C)(C)C | 104 to 106 °C |
| CCCCCN1C(=O)C2(COc3cc4c(cc32)OCCO4)c2ccccc21 (stereo not given) | 111 to 113 °C |
| O=S(=O)(Cc1ccccc1)c1nc[nH]n1 | 160 to 162 °C |
| O=C1Nc2cccnc2N(C(=O)CCN2CCN(Cc3ccccc3)CC2)c2ccccc21 | 205 to 207 °C |
| CCCCCCCCCCCCOc1cc(N)c(OCCCCCCCCCCCC)cc1N | 75 to 76 °C |
| COc1ccc(N2CCC(c3c(N)nc(N)[nH]c3=O)CC2)cc1 | 308 °C |
| Cc1nnc2n1-c1sc(CCc3ccc(OC(C)C)cc3)cc1C(c1ccccc1Cl)=NC2 | 121 to 124 °C |
| COC(=O)c1ccccc1NC(=O)N(C)CCO | 90 °C |

Input line: Looking for the measured melting point of "COC(=O)c1cccc(Cn2ccc(OCc3ccc(F)cc3F)c(Cl)c2=O)c1F" , can you help?
Output line: 171 to 174 °C

Input line: Try the molecule N#CC(c1ccccc1)C1CCN(c2ccc([N+](=O)[O-])cc2)CC1 (stereo not given)
Output line: 118 °C

Input line: Try the molecule "COC(=O)C(=Cc1cc(OC)cc(OC)c1)c1ccc(Oc2ccc(CBr)cc2)cc1"
Output line: 79 to 81 °C

Input line: Try the molecule COc1cc(OC)cc(C(C)N(C)CCCOc2ccc(S(=O)(=O)c3c(C(C)C)c4ccccc4n3C)cc2)c1 (stereo not given)
Output line: 156 °C
